IC50 values by entry
System: OVCAR-5 complex spheroid (HUVEC/MSC), viability % T/C
Experiment: Anticancer human tumor OVCAR-5 cell line growth inhibition [Asc];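 further: spheroids exposed to agents for 7 days before readout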
Details: curve of first compound; second compound 0.1 µM
Excerpt: Multicellular complex tumor spheroid response to apoptosis pathway targeting inhibitors Alrizomadlin, Pelcitoclax, and Dasminapant in combination with a variety of drugs and investigational agents in selected tumor cell lines […] Compounds. […] If the clinical Cmax for an agent had not been determined, the highest concentration tested was 10 microM. […]
# value in nM; strip the unit string

Fill in the blank: the reported IC50 of COc1c(OCCCN2CCOCC2)ccc2c3n(c(=NC(=O)c4cnc(N)nc4)nc12)CCN3 + CNC(C)C(=O)NC1CN(S(=O)(=O)c2cccc(S(=O)(=O)N3CCC4CCC(C(=O)NC(c5ccccc5)c5ccccc5)N4C(=O)C(NC(=O)C(C)NC)C3)c2)CCC2CCC(C(=O)NC(c3ccccc3)c3ccccc3)N2C1=O is ____.
19.5

What IC50 value was documented for this molecule, O=C(c1ccc(F)c(F)c1Nc1ccc(I)cc1F)N1CC(O)([C@@H]2CCCCN2)C1 + Cc1c(S(C)(=O)=O)c(-c2cc(F)cc(N3CCN(c4ccc(NS(=O)(=O)c5ccc(NC(CCN6CCC(C(=O)OCCCP(=O)(O)O)CC6)CSc6ccccc6)c(S(=O)(=O)C(F)(F)F)c5)cc4)CC3)c2)c(-c2ccc(Cl)cc2)n1C(C)C ?
150

---

test system: OVCAR-5 complex spheroid (HUVEC/MSC), viability % T/C; assay: Anticancer human tumor OVCAR-5 cell line growth inhibition [Asc]; settings: curve of first compound; second compound 0.1 µM;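 further: spheroids exposed to agents for 7 days before readout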
observed.property: IC50 (nM)
Your answer should be a plain number; it is taken to be in nM.

Any idea what its IC50 is? The compound is Cc1nc(N2CCC3(CC2)COC(C)C3N)c(CO)nc1Sc1ccnc(N)c1Cl (configuration not stated) + Cc1c(S(C)(=O)=O)c(-c2cc(F)cc(N3CCN(c4ccc(NS(=O)(=O)c5ccc(NC(CCN6CCC(C(=O)OCCCP(=O)(O)O)CC6)CSc6ccccc6)c(S(=O)(=O)C(F)(F)F)c5)cc4)CC3)c2)c(-c2ccc(Cl)cc2)n1C(C)C
1900

---

test system: OVCAR-5 complex spheroid (HUVEC/MSC), viability % T/C; assay: Anticancer human tumor OVCAR-5 cell line growth inhibition [Asc]; details: second compound 0.3 µM; first compound 1 µM; stronger effect = lower value;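 further: spheroids exposed to agents for 7 days before readout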;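 on viability, T/C: 100% = DMSO vehicle-treated wells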
Quick list: viability, T/C per entry.
Express the result in % but write the number alone.

Example entries and their recorded answers appear below.
{"columns": ["compound", "observed.property", "measurement"],
 "data": [
  ["C=C(F)C(=O)N1CCN(c2nc(OCC3CCCN3C)nc3c2CCN(c2cccc4cccc(Cl)c24)C3)CC1CC#N (centres undefined) + CCN1C(C(=O)NC23CCC(C(=O)O)(CC2)CC3)C(c2cccc(Cl)c2F)C2(C(=O)Nc3cc(Cl)ccc32)C12CCCCC2", "viability, T/C", 62.7],
  ["C=CC(=O)N1CCN(c2nc(=O)n(-c3c(C)ccnc3C(C)C)c3nc(-c4c(O)cccc4F)c(F)cc23)C(C)C1 (centres undefined) + CCN1C(C(=O)NC23CCC(C(=O)O)(CC2)CC3)C(c2cccc(Cl)c2F)C2(C(=O)Nc3cc(Cl)ccc32)C12CCCCC2", "viability, T/C", 121],
  ["O=C(c1cc(Cc2n[nH]c(=O)c3ccccc23)ccc1F)N1CCN(C(=O)C2CC2)CC1 + CCN1C(C(=O)NC23CCC(C(=O)O)(CC2)CC3)C(c2cccc(Cl)c2F)C2(C(=O)Nc3cc(Cl)ccc32)C12CCCCC2", "viability, T/C", 75.1]
]}

Please find the next compound below.
State the recorded viability, T/C for this entry: COc1c(OCCCN2CCOCC2)ccc2c3n(c(=NC(=O)c4cnc(N)nc4)nc12)CCN3 + CCN1C(C(=O)NC23CCC(C(=O)O)(CC2)CC3)C(c2cccc(Cl)c2F)C2(C(=O)Nc3cc(Cl)ccc32)C12CCCCC2
10.5

---

test system: OVCAR-5 complex spheroid (HUVEC/MSC), viability % T/C; assay: Anticancer human tumor OVCAR-5 cell line growth inhibition [Asc]; conditions: second compound 1 µM; first compound 0.316 µM; active = viability on the fitted dose curve at most 10% of control; inactive = the rest;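 further: spheroids exposed to agents for 7 days before readout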
Pick one and only one: YES = active, NO = inactive

{"columns": ["compound", "measured.on", "category.label"],
 "data": [
  ["CCN1CCN(Cc2ccc(Nc3ncc(F)c(-c4cc(F)c5nc(C)n(C(C)C)c5c4)n3)nc2)CC1 + CNC(C)C(=O)NC1CN(S(=O)(=O)c2cccc(S(=O)(=O)N3CCC4CCC(C(=O)NC(c5ccccc5)c5ccccc5)N4C(=O)C(NC(=O)C(C)NC)C3)c2)CCC2CCC(C(=O)NC(c3ccccc3)c3ccccc3)N2C1=O", "OVCAR-5 complex spheroid (HUVEC/MSC), viability % T/C", "NO"],
  ["O=C(c1ccc(F)c(F)c1Nc1ccc(I)cc1F)N1CC(O)([C@@H]2CCCCN2)C1 + CNC(C)C(=O)NC1CN(S(=O)(=O)c2cccc(S(=O)(=O)N3CCC4CCC(C(=O)NC(c5ccccc5)c5ccccc5)N4C(=O)C(NC(=O)C(C)NC)C3)c2)CCC2CCC(C(=O)NC(c3ccccc3)c3ccccc3)N2C1=O", "OVCAR-5 complex spheroid (HUVEC/MSC), viability % T/C", "NO"],
  ["CNC(C)C(=O)NC1CN(S(=O)(=O)c2cccc(S(=O)(=O)N3CCC4CCC(C(=O)NC(c5ccccc5)c5ccccc5)N4C(=O)C(NC(=O)C(C)NC)C3)c2)CCC2CCC(C(=O)NC(c3ccccc3)c3ccccc3)N2C1=O (stereo unspecified) + Cc1c(S(C)(=O)=O)c(-c2cc(F)cc(N3CCN(c4ccc(NS(=O)(=O)c5ccc(NC(CCN6CCC(C(=O)OCCCP(=O)(O)O)CC6)CSc6ccccc6)c(S(=O)(=O)C(F)(F)F)c5)cc4)CC3)c2)c(-c2ccc(Cl)cc2)n1C(C)C", "OVCAR-5 complex spheroid (HUVEC/MSC), viability % T/C", "NO"],
  ["COc1c(OCCCN2CCOCC2)ccc2c3n(c(=NC(=O)c4cnc(N)nc4)nc12)CCN3 + Cc1c(S(C)(=O)=O)c(-c2cc(F)cc(N3CCN(c4ccc(NS(=O)(=O)c5ccc(NC(CCN6CCC(C(=O)OCCCP(=O)(O)O)CC6)CSc6ccccc6)c(S(=O)(=O)C(F)(F)F)c5)cc4)CC3)c2)c(-c2ccc(Cl)cc2)n1C(C)C", "OVCAR-5 complex spheroid (HUVEC/MSC), viability % T/C", "YES"],
  ["CCN1CCN(Cc2ccc(Nc3ncc(F)c(-c4cc(F)c5nc(C)n(C(C)C)c5c4)n3)nc2)CC1 + Cc1c(S(C)(=O)=O)c(-c2cc(F)cc(N3CCN(c4ccc(NS(=O)(=O)c5ccc(NC(CCN6CCC(C(=O)OCCCP(=O)(O)O)CC6)CSc6ccccc6)c(S(=O)(=O)C(F)(F)F)c5)cc4)CC3)c2)c(-c2ccc(Cl)cc2)n1C(C)C", "OVCAR-5 complex spheroid (HUVEC/MSC), viability % T/C", "NO"]
]}

Now look at this entry.
Please state the recorded outcome for this compound: C=CC(=O)N1CCN(c2nc(=O)n(-c3c(C)ccnc3C(C)C)c3nc(-c4c(O)cccc4F)c(F)cc23)C(C)C1 (stereo unspecified) + CNC(C)C(=O)NC1CN(S(=O)(=O)c2cccc(S(=O)(=O)N3CCC4CCC(C(=O)NC(c5ccccc5)c5ccccc5)N4C(=O)C(NC(=O)C(C)NC)C3)c2)CCC2CCC(C(=O)NC(c3ccccc3)c3ccccc3)N2C1=O
NO

---

test system: OVCAR-5 complex spheroid (HUVEC/MSC), viability % T/C; experiment: Anticancer human tumor OVCAR-5 cell line growth inhibition [Asc]; details: second compound 1 µM; first compound 0.0949 µM; stronger effect = lower value;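 further: spheroids exposed to agents for 7 days before readout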;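 on viability, T/C: 100% = DMSO vehicle-treated wells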
observed.property: viability, T/C (%)
Field: numeric (%). Do not append units.

{"columns": ["molecule", "measured.on", "unit", "measurement"],
 "data": [
  ["CCN1C(C(=O)NC23CCC(C(=O)O)(CC2)CC3)C(c2cccc(Cl)c2F)C2(C(=O)Nc3cc(Cl)ccc32)C12CCCCC2 (configuration not stated) + CNC(C)C(=O)NC1CN(S(=O)(=O)c2cccc(S(=O)(=O)N3CCC4CCC(C(=O)NC(c5ccccc5)c5ccccc5)N4C(=O)C(NC(=O)C(C)NC)C3)c2)CCC2CCC(C(=O)NC(c3ccccc3)c3ccccc3)N2C1=O", "OVCAR-5 complex spheroid (HUVEC/MSC), viability % T/C", "%", 86.9]
]}

// next entry
viability, T/C for NC(=O)C(=Cn1cnc(-c2cc(C(F)(F)F)cc(C(F)(F)F)c2)n1)c1cncnc1 + CNC(C)C(=O)NC1CN(S(=O)(=O)c2cccc(S(=O)(=O)N3CCC4CCC(C(=O)NC(c5ccccc5)c5ccccc5)N4C(=O)C(NC(=O)C(C)NC)C3)c2)CCC2CCC(C(=O)NC(c3ccccc3)c3ccccc3)N2C1=O ?
54.9
